# TESTED ON: Human LOX-1 full-length protein (human, UniProt P78380 1-273)
# TEST: cell-based or functional assay
MEASURE NAME: Reactive oxygen species (ROS) generation in huLOX-1/HEK293 cells (IC50, nM)
API: value field is a number in nM; no unit string.

Tell us which Reactive oxygen species (ROS) generation in huLOX-1/HEK293 cells (IC50, nM) value is on record for FF4 (antibody, human IgG1, kappa, L234A L235A, V domains shown, Humaneered variant of E2E10, tested as full human IgG; the text and claims pair heavy chain 56 with light chain 66; Biotinylated for the neutrophil assay; also called LLG786; LLG786 (FF4)) VH: QVQLVQSGAEVKKPGASVKVSCKASGYTFTDYEVHWVRQAPGQGLEWMGAIHPGSGGAAYVQKFQGRVTMTRDTSISTAYMELSRLRSDDTAVYYCARWLPMDYWGQGTLVTVSS VL: DIQMTQSPSSVSASVGDRVTITCRASQGITNWLAWYQQKPGKAPKLLIYAASILESGVPSRFSGSGSGTDYTLTISSLQPEDIATYYCQQYLITPYTFGQGTKLEIKR
5.3

Data origin, for the record: patent US20170152313A1
